test-details: inhibitors of HIV fusion peptide binding, primary screen, biochemical, uHTS, fluorescence dequenching (AID 1986)
condition-parameters: cell-free peptide binding, 30 min, measured here: repeat confirmation average inhibition, at 18.6 µM, stronger effect = higher value
Hit rate of the full screen: of about 290,000 compounds, about 890 (0.31%) were called active. For the sample, actives were picked, then their nearest neighbours and some compounds at random.
Below, each of the compounds is paired with its reported inhibition value.

CN1CCC2(CC1)C1CN(C)CC=C1C(C#N)=C(N)C2(C#N)C#N (stereo unspecified) | 50.3%
CC(=O)Oc1ccc2c(c1)O/C(=C\c1ccncc1)C2=O | 53%
Cn1c(CCN2CCCCC2)nc2cc(NC(=O)NC3CCCCC3)ccc21 | 1.9%
CC[n+]1ccc(/C=C/c2c[nH]c3ccccc23)cc1 | 77.7%
CCN(CC)C(=O)c1ccc(/C=C/c2c[nH]c3ccccc23)[n+](C)c1 | 81.7%

Challenge: Quick one: inhibition of COc1cc(/C=c2\sc3nc(=O)c(-c4ccccc4)nn3c2=O)ccc1OCCC(C)C ?
Response given: 39.1%

Challenge: Follow-up entry: Cc1cc(-c2csc(NC(=O)c3ccc(=O)[nH]c3)n2)c(C)n1Cc1ccccc1
Response given: 2.3%

Challenge: Param item: CC(=O)c1ccc2c(c1)C1C=CCC1C(C(=O)O)N2 (stereo unspecified)
Response given: 17.4%

Challenge: Try this compound too: CCNc1nc(-c2cc(C)n(Cc3ccco3)c2C)cs1
Response given: 0.3%

Challenge: Another: O=C(O)C1Nc2c(O)cc(Cl)c([N+](=O)[O-])c2C2C=CCC12 (stereo unspecified)
Response given: 41%

Challenge: Also check O=C(Oc1ccc2c(c1)O/C(=C\c1ccncc1)C2=O)c1ccccc1
Response given: 3%

---

test-details: inhibitors of HIV fusion peptide binding, primary screen, biochemical, uHTS, fluorescence dequenching (AID 1986)
condition-parameters: cell-free peptide binding, 30 min, at 20 µM
Hit rate of the full screen: of about 290,000 compounds, about 890 (0.31%) were called active. Rule as the data show it: active = inhibition mostly above about 52% (no sharp cut-off); inactive = mostly below about 76%. For the sample, actives were picked, then their nearest neighbours and some compounds at random.
Log the outcome using a class from active, inactive

Consider the worked cases shown below.
Cc1ccc2c(c1)S/C(=C/c1ccc[n+](C)c1)N2CCO | inactive
CC(=O)Nc1ccc(/C=N/Nc2ccc(C(=O)c3c(C)cc4ccccn34)cc2[N+](=O)[O-])cc1 | inactive
O=C(Cn1cccc1C(=O)c1ccccc1)NCc1ccc2c(c1)OCO2 | inactive
O=C(N/N=C/c1ccc(-c2ccc(Cl)c(C(=O)O)c2)o1)c1cc2c(ccc3ccccc32)o1 | active
CCc1cccc(NC(=O)CCS(=O)(=O)c2cc3c(cc2C)NC(=O)CO3)c1 | inactive

Challenge: I'd appreciate the recorded outcome for Nc1nnc(CC(=O)N/N=C\c2cc([N+](=O)[O-])ccc2O)s1 from this test.
Response given: inactive

Challenge: Can you handle COC(=O)c1ccc(N2NC(=O)/C(=C/c3ccc(-c4ccc(Cl)c(C(=O)O)c4)o3)C2=O)cc1 next?
Response given: active

Challenge: Please give the result for Cc1ccc(/C=N/NC(=O)c2cc3c(ccc4ccccc43)o2)o1 too.
Response given: inactive

Challenge: Cool, now Cc1c(NC(=O)c2ccc(Cl)s2)c(=O)n(-c2ccccc2)n1C
Response given: inactive

Challenge: Field entry: Cc1cc2ccccn2c1C(=O)c1ccc(N/N=C/c2ccc(C(=O)O)cc2)c([N+](=O)[O-])c1
Response given: active

Challenge: Request: Cc1ccc(-c2ccc(/C=N\NC(=O)c3cc4c(ccc5ccccc54)o3)o2)cc1[N+](=O)[O-]
Response given: inactive

Challenge: Same again, this time with COc1ccc(C2/C(=C(/O)c3ccc(F)cc3)C(=O)C(=O)N2c2ccccn2)cc1OC (stereo not given)
Response given: inactive

Challenge: Then this compound: O=C(CCl)Nc1cc(S(=O)(=O)N2CCOCC2)ccc1N1CCOCC1
Response given: inactive

Challenge: Would you mind doing Nc1nnc(CC(=O)N/N=C/c2ccc([N+](=O)[O-])cc2)s1 as well?
Response given: inactive

Challenge: Queued: Cc1ccc(N2NC(=O)/C(=C/c3ccc(-c4ccc(Cl)c(C(=O)O)c4)o3)C2=O)cc1
Response given: inactive

Challenge: Another compound to check: Cc1c(N2C(=O)/C(=C/c3ccccc3)SC2=S)c(=O)n(-c2ccccc2)n1C
Response given: inactive

Challenge: Would you mind doing Cc1c(N2C(=O)/C(=C\c3ccc(N(C)C)cc3)N(C)C2=S)c(=O)n(-c2ccccc2)n1C as well?
Response given: active

Challenge: Could you do the same for CN1C(=S)N(c2cccnc2)C(=O)/C1=C\c1ccc(N(C)C)cc1 , please?
Response given: inactive

Challenge: Please answer likewise for O=c1c2cn[nH]c2[nH]c(=S)n1-c1ccccc1
Response given: inactive

Challenge: Try the compound CCOC(=O)N1CCN(C(=O)C2CCN(S(=O)(=O)c3c(C)cc(C)cc3C)CC2)CC1
Response given: inactive

Provenance of the data: PubChem BioAssay AID1986
